Target or system: T1, human CD3e (T-cell surface glycoprotein CD3 epsilon chain) (human, UniProt P07766 23-207)
T1 construct: Target of the anti-hCD3e antibodies on human PBMC, Jurkat cells and cells expressing human CD3e; on T cells it is part of the CD3/TCR complex; also called hCD3e; CD3e on human PBMC
Protocol description: flow cytometry, human PBMC, antibody 10 µg/mL, anti-human IgG Fc-Alexa Fluor647 (1:500), anti-hTcRβ-PerCP (1:30)
Below, each entry is listed alongside its reported upper right quadrant, percent of cells AF647+ / hTcRβ-PerCP+.
Express your answer in %, writing the number without its unit.

Binder	Unit tag	Obs value
1B1-H1K1-IgG1-LALA (antibody, V domains shown, Humanized; human IgG1 with LALA mutations; also called H1K1 (humanized 1B1)) VH: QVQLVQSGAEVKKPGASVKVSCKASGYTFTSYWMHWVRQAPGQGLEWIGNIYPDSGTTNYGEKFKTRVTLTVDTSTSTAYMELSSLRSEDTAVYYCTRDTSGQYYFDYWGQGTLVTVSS VL: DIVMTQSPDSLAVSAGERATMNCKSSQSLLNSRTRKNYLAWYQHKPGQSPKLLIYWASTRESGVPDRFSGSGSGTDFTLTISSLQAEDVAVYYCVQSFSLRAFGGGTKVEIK	%	61.6
1B1-H1K2-IgG1-LALA (antibody, V domains shown, Humanized; human IgG1 with LALA mutations; also called H1K2 (humanized 1B1)) VH: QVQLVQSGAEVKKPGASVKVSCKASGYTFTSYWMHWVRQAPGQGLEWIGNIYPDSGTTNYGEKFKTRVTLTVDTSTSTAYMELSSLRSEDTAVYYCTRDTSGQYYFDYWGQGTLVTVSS VL: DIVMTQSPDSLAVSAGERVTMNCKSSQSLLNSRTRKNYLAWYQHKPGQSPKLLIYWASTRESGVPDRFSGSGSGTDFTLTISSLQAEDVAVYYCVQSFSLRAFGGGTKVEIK	%	63.5
1B1-H2K3-IgG1-LALA (antibody, V domains shown, Humanized; human IgG1 with LALA mutations; also called H2K3 (humanized 1B1)) VH: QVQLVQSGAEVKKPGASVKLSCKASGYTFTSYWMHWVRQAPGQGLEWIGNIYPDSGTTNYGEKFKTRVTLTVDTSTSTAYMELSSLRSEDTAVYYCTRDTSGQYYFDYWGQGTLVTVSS VL: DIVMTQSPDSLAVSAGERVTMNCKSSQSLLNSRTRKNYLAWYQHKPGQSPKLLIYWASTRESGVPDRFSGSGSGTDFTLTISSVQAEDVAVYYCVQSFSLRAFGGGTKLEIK	%	61.2

Next, consider the following binder.
// query upper right quadrant, percent of cells AF647+ / hTcRβ-PerCP+ value for entry 1B1-H4K3-IgG1-LALA (antibody, V domains shown, Humanized; human IgG1 with LALA mutations; also called H4K3 (humanized 1B1)) VH: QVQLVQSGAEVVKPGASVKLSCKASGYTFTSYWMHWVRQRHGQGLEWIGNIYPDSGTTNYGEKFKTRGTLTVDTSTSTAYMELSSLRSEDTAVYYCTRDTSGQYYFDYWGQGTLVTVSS VL: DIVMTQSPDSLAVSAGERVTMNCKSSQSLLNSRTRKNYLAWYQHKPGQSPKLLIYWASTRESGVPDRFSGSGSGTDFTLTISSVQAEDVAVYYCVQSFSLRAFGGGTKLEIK
62.4
